Record form. Attribute: IC50. Fill in for each entry.
Target: biotinylated wild-type menin and MLL-AF9 fusion protein (menin/MLL binding) (Homo sapiens, UniProt O00255)
Construct: MLL-AF9-FLAG: HEK293 cells, used as cleared lysate
Sequence (O00255 whole entry, the tested form may be a part): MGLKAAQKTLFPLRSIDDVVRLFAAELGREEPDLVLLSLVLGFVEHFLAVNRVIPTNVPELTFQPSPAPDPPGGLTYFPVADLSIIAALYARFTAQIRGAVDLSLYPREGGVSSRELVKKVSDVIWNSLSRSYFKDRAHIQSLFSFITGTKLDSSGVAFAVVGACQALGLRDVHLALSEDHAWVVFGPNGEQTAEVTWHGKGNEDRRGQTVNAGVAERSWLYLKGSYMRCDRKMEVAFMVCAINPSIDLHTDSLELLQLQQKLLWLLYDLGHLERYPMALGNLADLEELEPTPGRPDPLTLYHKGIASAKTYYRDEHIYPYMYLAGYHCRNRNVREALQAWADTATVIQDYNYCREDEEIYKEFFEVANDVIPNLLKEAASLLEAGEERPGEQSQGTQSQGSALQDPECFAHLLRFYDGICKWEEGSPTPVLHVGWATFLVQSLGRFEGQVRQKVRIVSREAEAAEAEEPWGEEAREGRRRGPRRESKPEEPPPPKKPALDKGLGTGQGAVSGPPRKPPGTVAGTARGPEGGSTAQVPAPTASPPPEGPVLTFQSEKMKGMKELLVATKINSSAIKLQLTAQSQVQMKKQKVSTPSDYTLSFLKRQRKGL
Test: Assay 1: menin/MLL binding AlphaLISA assay, wild-type menin
Conditions: Table 30; column head does not say wild-type or mutated menin

>>> df
                                   compound  test_value
0  CC(C)c1ccccc1-c1cc(F)ccc1Oc1cncnc1N1CCC2(CCN(Cc3ccc4[nH]c(=O)[nH]c4c3)C2)C1 (single isomer, unassigned) [Example 41A]    < 100 nM
1  NC1Cc2ccc(-c3cc(F)ccc3Oc3cncnc3N3CC4(CN(CC5CCOCC5)C4)C3)cc2C1 (stereo not shown)    < 100 nM
2  N#Cc1ccc(-c2cc(F)ccc2Oc2cncnc2N2CCC3(CCN(Cc4ccc5c(c4)CC(=O)N5)C3)C2)c(C2CC2)c1 (stereo not shown)    < 100 nM
3  CC(C)N(C(=O)c1cc(F)ccc1Oc1cncnc1N1CC2(CN(CC3CCOCC3)C2)C1)C(C)C    < 100 nM
4  CC(C)(C)OC(=O)N[C@H]1CC[C@H](CN2CCC3(CCN(c4ncncc4Oc4ccc(F)cc4OC4CCCC4)C3)C2)CC1 (stereo partly shown)    < 100 nM

Below are 2 compounds. Give each one its IC50.
1. Cn1c(-c2cc(F)ccc2Oc2cncnc2N2CC3(CCN(CC4CCC(NS(C)(=O)=O)CC4)CC3)C2)c(C2CC2)ccc1=O (stereo not shown)
2. CCN(C(=O)C(C)C)c1cc(F)ccc1Oc1cncnc1N1CC2(CCN(CC(C)C)C2)C1

Output:
1: < 100 nM; 2: < 100 nM
